Origin of values: patent US7118895B2

Each entry below carries its recorded Decomposition efficiency of daidzin family in concentrated soybean protein.
Test system: Crude diglycosidase
experimental_protocol: Examination of pH in the conversion into isoflavone aglycons by diglycosidase using soybean materials
Format: biochemical, Penicillium multicolor IAM7153
condition: pH1.6; heat treatment of enzyme: no; reaction time 0 h
Enter your answer as a number in %; do not include the unit.

Known results for compounds:
Give Decomposition efficiency of daidzin family in concentrated soybean protein (Crude diglycosidase) of the following compound: `O=c1c(-c2ccc(O)cc2)coc2cc(O)ccc12`
3.0

Give Decomposition efficiency of daidzin family in concentrated soybean protein (Crude diglycosidase) of the following compound: `O=c1c(-c2ccc(O)cc2)coc2cc(O[C@@H]3O[C@H](CO)[C@@H](O)[C@H](O)[C@H]3O)ccc12`
52.5

Next compound, Decomposition efficiency of daidzin family in concentrated soybean protein to be filled in.
Give Decomposition efficiency of daidzin family in concentrated soybean protein (Crude diglycosidase) of the following compound: `CC(=O)OC[C@H]1O[C@@H](Oc2ccc3c(=O)c(-c4ccc(O)cc4)coc3c2)[C@H](O)[C@@H](O)[C@@H]1O`
44.5

* * *

Tested on: Crude diglycosidase
experimental_protocol: Examination of pH in the conversion into isoflavone aglycons by diglycosidase using soybean materials
Type: biochemical, Penicillium multicolor IAM7153
condition: pH3.5, heat treatment of enzyme no, reaction time 3 h, 55° C.
Method: A substrate solution of 450 μL was prepared by suspending 50 mg of each soybean material (roasted soy flour (manufactured by Fuji Shokuryo K.K.), soymilk (manufactured by Gitoh Shokuhin K.K.), defatted soybean (manufactured by Fuji Seiyu K.K.), concentrated soybean protein (manufactured by Fuji Seiyu K.K.)), and adjusting the pH to 2 to 11 with hydrochloric acid or sodium hydroxide. […]
readout: Decomposition efficiency of glycitin family in soymilk

Give Decomposition efficiency of glycitin family in soymilk (Crude diglycosidase) of the following compound: `COc1cc2c(=O)c(-c3ccc(O)cc3)coc2cc1O`
100.0

Give Decomposition efficiency of glycitin family in soymilk (Crude diglycosidase) of the following compound: `COc1cc2c(=O)c(-c3ccc(O)cc3)coc2cc1O[C@@H]1O[C@H](COC(=O)CC(=O)O)[C@@H](O)[C@H](O)[C@H]1O`
not detected

Give Decomposition efficiency of glycitin family in soymilk (Crude diglycosidase) of the following compound: `COc1cc2c(=O)c(-c3ccc(O)cc3)coc2cc1O[C@@H]1O[C@H](CO)[C@@H](O)[C@H](O)[C@H]1O`
not detected

Give Decomposition efficiency of glycitin family in soymilk (Crude diglycosidase) of the following compound: `COc1cc2c(=O)c(-c3ccc(O)cc3)coc2cc1O[C@@H]1O[C@H](COC(C)=O)[C@@H](O)[C@H](O)[C@H]1O`
not detected

* * *

Tested on: Crude diglycosidase
experimental_protocol: Examination of pH in the conversion into isoflavone aglycons by diglycosidase using soybean materials
Assay type: biochemical, Penicillium multicolor IAM7153
Set-up: concentration or dose not given beside the values
condition: pH5.4; heat treatment of enzyme: no; reaction time 1 h
readout: Decomposition efficiency of genistin family in defatted soybean (%)
Enter your answer as a number in %; do not include the unit.

Known results for molecules:
Give Decomposition efficiency of genistin family in defatted soybean (Crude diglycosidase) of the following molecule: `O=C(O)CC(=O)OC[C@H]1O[C@@H](Oc2cc(O)c3c(=O)c(-c4ccc(O)cc4)coc3c2)[C@H](O)[C@@H](O)[C@@H]1O`
48.0

Give Decomposition efficiency of genistin family in defatted soybean (Crude diglycosidase) of the following molecule: `O=c1c(-c2ccc(O)cc2)coc2cc(O)cc(O)c12`
51.5

Next molecule, Decomposition efficiency of genistin family in defatted soybean to be filled in.
Give Decomposition efficiency of genistin family in defatted soybean (Crude diglycosidase) of the following molecule: `CC(=O)OC[C@H]1O[C@@H](Oc2cc(O)c3c(=O)c(-c4ccc(O)cc4)coc3c2)[C@H](O)[C@@H](O)[C@@H]1O`
0.5
